Just for reference, patent US20170066831A1 is where these values come from.

SYSTEM UNDER TEST: T1, cynomolgus (Macaca fascicularis) ST2L extracellular domain with C-terminal His6 tag (Macaca fascicularis (cynomolgus), UniProt Q01638 19-321 (human entry))
T1 construct: also called cyno ST2L-ECD; cynoST2L-ECD
T1 chain: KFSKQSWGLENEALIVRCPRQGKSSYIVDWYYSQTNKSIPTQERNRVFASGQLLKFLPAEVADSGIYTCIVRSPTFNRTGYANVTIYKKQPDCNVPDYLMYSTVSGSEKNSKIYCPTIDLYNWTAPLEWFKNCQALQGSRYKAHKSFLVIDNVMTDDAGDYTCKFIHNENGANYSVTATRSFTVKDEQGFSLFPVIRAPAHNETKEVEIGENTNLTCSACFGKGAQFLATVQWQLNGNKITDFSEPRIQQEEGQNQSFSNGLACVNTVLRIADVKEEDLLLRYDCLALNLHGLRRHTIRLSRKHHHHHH
METHOD NOTES: SPR, mAb captured, ST2L-ECD in solution
Listing: kon of selected binders
# value in M⁻¹ s⁻¹; strip the unit string

Here's what some known entries look like.
STLM228 (antibody, V domains shown, VH STLH201 + VL STLL276) VH: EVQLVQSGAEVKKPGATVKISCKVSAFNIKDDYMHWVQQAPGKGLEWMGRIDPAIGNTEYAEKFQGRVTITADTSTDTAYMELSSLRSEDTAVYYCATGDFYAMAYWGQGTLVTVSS VL: DIQMTQSPSTLSASVGDRVTITCITNTDIDDVIHWYQQKPGKAPKLLIYEGNTLRPGVPSRFSGSGSGTEFTLTISSLQPDDFATYYCLQSDNMLTFGQGTKLEIK : 1e+08
STLM214 (antibody, V domains shown, frameworks VH3-23 / Vk-L6) VH: EVQLLESGGGLVQPGGSLRLSCAASGFTFSSYDMFWVRQAPGKGLEWVSDIKGEGGRTAYADSVKGRFTISRDNSKNTLYLQMNSLRAEDTAVYYCARDPWSTEGSFFVLDYWGQGTLVTVSS VL: EIVLTQSPATLSLSPGERATLSCRASQSVDDDLAWYQQKPGQAPRLLIYDASNRATGIPARFSGSGSGTDFTLTISSLEPEDFAVYYCQQYIDAPLTFGQGTKVEIK : 7.2e+06

Notebook: STLM220 (antibody, V domains shown, frameworks VH3-23 / Vk-L6) VH: EVQLLESGGGLVQPGGSLRLSCAASGFTFSFYDMFWVRQAPGKGLEWVSDIRGEGGGTAYADSVKGRFTISRDNSKNTLYLQMNSLRAEDTAVYYCARDPWSTEGSFFVLDYWGQGTLVTVSS VL: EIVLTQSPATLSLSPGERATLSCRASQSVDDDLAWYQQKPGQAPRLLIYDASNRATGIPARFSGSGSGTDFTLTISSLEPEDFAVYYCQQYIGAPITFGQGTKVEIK , kon read as 1.6e+07
